Field: cytotoxicity at 10 µM. Provide a value for each of the compounds that follow.
Assay: Toxicity liver stage against HepG2, at 10uM
Format: cell-based
Set-up: test concentration 10 uM, cell line HepG2-A16-CD81EGFP
Settings: human, HepG2-A16-CD81EGFP cells; read-out: INHIBITION

compound | cytotoxicity at 10 µM
CSCc1noc(CNC(=O)C2CCN(C(=O)C3CC3)CC2)n1 | 11.5%
CC(C)NC(=O)[C@]12COC[C@H]1CN(Cc1cnn(C)c1)C2 | 3.63%
CCc1nc(C2CCCN2Cc2nc(CCOC)no2)no1 (stereo not given) | -10.8%
NC(=O)CN1CCCN(C(=O)CCOc2ccccc2Cl)CC1 | -6.73%

Ask: Output measured cytotoxicity at 10 µM for this item: Cc1cn2c(CN(C)C(=O)c3cccnc3O)c(C)nc2s1
Reply: -8.59%
